Please respond with reported cGMP Assay (EC50, pM) w/BSA, hNPRA for every item in the list.
# Study Target: T1, human NPRA (human, UniProt P16066 33-1061)
# T1 sequence (looked up): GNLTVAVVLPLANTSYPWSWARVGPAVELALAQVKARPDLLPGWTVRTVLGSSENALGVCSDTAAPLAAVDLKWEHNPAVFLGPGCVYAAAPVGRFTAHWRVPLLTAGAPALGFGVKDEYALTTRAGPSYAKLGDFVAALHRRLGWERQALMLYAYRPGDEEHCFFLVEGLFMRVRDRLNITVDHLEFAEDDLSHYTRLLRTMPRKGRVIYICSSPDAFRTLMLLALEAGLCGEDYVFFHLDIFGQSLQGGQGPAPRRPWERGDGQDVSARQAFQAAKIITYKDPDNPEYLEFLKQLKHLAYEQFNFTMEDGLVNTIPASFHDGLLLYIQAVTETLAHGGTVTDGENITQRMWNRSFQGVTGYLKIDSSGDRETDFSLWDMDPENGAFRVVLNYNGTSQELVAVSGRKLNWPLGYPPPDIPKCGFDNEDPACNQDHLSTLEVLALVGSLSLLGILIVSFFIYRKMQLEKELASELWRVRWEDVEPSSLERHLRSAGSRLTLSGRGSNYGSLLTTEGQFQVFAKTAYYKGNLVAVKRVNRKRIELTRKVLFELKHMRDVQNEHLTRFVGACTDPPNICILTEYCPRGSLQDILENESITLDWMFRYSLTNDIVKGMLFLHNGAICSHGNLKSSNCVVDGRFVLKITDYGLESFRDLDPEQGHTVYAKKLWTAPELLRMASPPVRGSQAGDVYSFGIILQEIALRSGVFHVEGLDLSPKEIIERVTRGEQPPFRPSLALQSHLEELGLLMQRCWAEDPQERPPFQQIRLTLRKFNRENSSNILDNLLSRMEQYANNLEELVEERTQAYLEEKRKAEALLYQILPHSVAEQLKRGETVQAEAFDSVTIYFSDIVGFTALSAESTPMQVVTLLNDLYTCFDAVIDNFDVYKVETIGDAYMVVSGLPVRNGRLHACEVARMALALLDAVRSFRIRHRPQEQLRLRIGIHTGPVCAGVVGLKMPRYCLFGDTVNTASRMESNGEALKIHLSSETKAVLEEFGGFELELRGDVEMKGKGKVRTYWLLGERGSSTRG
# Assay Details: cell-based or functional assay
Numbered stars: 1 amine (or outer) side, 2 acyl side, 3 side chain; on linkers, the order of the positions; unused ones are H or OH. Bridge positions count the residues as written; N and C are the ends. Square brackets hold non-standard residues; d marks the D form. * marks the point of attachment. thioacetal = thioacetal linkage between two cysteines (intrachain bond at the bracketed Cys); C20 diacid = O=C(O)CCCCCCCCCCCCCCCCCCC(=O)*; γGlu = O=C(O)[C@H](CCC(=O)[*:2])N[*:1]; Dap = NC[C@H](N)C(=O)O
Don't forget the unit after the number, please.

{C20 diacid-γGlu}-EKEKEKGEKPRSSCFGG[Dap]IDRIGHQSGLGCPSFRHGSPSSGAPPPS-NH2 (bridge 14-30 via thioacetal) [HOOC-(CH2)18-CO-(γGlu)-EKEKEKGEKPRSS[CFGG-Dap-IDRIGHQSGLGC]PSFRHGSPSSGAPPPS-NH2]: 2.87e+06 pM
{C20 diacid-γGlu}-EKEKEKGEKPRSSCFGKRIDRIGHQSGLGCPSFRHGSPSSGAPPPS-NH2 (bridge 14-30 via thioacetal) [HOOC-(CH2)18-CO-(γGlu)-EKEKEKGEKPRSS[CFGKRIDRIGHQSGLGC]PSFRHGSPSSGAPPPS-NH2]: 41500 pM
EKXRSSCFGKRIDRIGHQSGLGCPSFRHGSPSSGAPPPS (N-terminus acylated with HOOC-(CH2)18-CO-(γGlu)-; (AEEA)6 after EKEKEKG; βAla; thioacetal linkage between the two bracketed Cys; C-terminal amide) [HOOC-(CH2)18-CO-(γGlu)-EKEKEKG-(AEEA)6-EK-βAla-RSS[CFGKRIDRIGHQSGLGC]PSFRHGSPSSGAPPPS-NH2]: 12800 pM
SXRRSSCFGKRIDRIGHYSGLGCPSFRHGSGSPSSGAPPPSG (N-terminus acylated with HOOC-(CH2)18-CO-(γGlu)-; (AEEA)6 after EKEKEKG; 4Pal; thioacetal linkage between the two bracketed Cys; C-terminal amide) [HOOC-(CH2)18-CO-(γGlu)-EKEKEKG-(AEEA)6-S-4Pal-RRSS[CFGKRIDRIGHYSGLGC]PSFRHGSGSPSSGAPPPSG-NH2]: 9170 pM

The reported value for EKPRSSCFGKRIDRIGHYSGLGCPSFRHSGSPSSGAPPPSG (N-terminus acylated with HOOC-(CH2)18-CO-(γGlu)-; (AEEA)6 after EKEKEKG; thioacetal linkage between the two bracketed Cys; C-terminal amide) [HOOC-(CH2)18-CO-(γGlu)-EKEKEKG-(AEEA)6-EKPRSS[CFGKRIDRIGHYSGLGC]PSFRHSGSPSSGAPPPSG-NH2] in terms of cGMP Assay (EC50, pM) w/BSA, hNPRA is 8970 pM
